Catalogue of kon values
- tgt: T1, recombinant human IL-31 (hIL-31, BHK produced, A1277F, zcytor17lig CEE) (human, UniProt Q6EBC2 24-164)
- T1 construct: also called recombinant hIL-31
- T1 sequence: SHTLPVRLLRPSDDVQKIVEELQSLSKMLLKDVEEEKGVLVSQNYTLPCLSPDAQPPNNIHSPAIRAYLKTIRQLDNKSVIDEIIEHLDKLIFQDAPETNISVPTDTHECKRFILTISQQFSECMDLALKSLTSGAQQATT
- test-method-notes: SPR (Biacore), mAb amine-coupled to CM5 chip, hIL-31 injected
Only the number, expressed in M⁻¹ s⁻¹, is required.

Some entries whose results are on file:
binder	readout-name	endpoint-unit	endpoint-value
humanized 292.12.3.1 construct clone 14 (12VH1-gly + HC(M69L, R71A, T73K, V78A, R94F) + LC(fback)) (antibody, human IgG4, V domains shown) VH: QVQLVQSGAEVKKPGASVKVSCKASGYTFTRYWMQWVRQAPGQGLEWMGAIYPGDGDTRYSQKFQGRVTLTADKSISTAYMELSSLRSEDTAVYYCAFPDGYYAAPYGMDYWGQGTLVTVSS VL: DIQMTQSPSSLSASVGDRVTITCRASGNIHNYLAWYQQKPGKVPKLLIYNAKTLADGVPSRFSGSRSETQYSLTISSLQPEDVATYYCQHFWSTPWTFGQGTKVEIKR	kon	M⁻¹ s⁻¹	59000
humanized 292.12.3.1 construct clone 16 (12VH1-gly + HC(fback) + LC(G66R, G68E, D70Q, T72S)) (antibody, human IgG4, V domains shown) VH: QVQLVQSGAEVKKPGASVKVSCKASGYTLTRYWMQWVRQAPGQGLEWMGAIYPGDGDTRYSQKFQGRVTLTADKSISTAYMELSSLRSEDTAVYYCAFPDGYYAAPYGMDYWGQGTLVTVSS VL: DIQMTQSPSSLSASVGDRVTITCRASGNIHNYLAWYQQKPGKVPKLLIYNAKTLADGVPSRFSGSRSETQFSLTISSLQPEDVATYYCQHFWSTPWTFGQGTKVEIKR	kon	M⁻¹ s⁻¹	61000
humanized 292.12.3.1 construct clone 11 (12VH5-gly + HC(fback)) (antibody, human IgG4, V domains shown) VH: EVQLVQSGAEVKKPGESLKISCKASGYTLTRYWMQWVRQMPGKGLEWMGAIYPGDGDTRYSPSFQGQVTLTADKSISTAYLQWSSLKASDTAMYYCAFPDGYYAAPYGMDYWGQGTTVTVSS VL: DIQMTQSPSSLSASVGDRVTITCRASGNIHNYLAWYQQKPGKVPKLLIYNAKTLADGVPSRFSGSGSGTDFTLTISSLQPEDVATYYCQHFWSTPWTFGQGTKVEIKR	kon	M⁻¹ s⁻¹	52000

Provide kon value for the following binder: humanized 292.12.3.1 construct clone 25 (12VH1-gly + HC(F29L, R94F) + LC(F71Y)) (antibody, human IgG4, V domains shown) VH: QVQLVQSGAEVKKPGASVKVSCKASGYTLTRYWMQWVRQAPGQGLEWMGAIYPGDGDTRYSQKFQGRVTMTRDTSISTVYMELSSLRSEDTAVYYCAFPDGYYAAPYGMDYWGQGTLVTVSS VL: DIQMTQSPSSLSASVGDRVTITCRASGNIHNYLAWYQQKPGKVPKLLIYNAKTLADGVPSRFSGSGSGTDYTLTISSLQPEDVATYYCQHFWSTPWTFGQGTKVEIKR
85000

Give a short answer stating reported kon for humanized 292.12.3.1 construct clone 17 (12VH1-gly + HC(fback) + LC(D70Q, F71Y, T72S)) (antibody, human IgG4, V domains shown) VH: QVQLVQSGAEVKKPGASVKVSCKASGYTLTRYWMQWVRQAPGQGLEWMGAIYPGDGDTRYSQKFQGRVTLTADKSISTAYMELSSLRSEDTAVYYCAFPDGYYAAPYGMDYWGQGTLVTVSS VL: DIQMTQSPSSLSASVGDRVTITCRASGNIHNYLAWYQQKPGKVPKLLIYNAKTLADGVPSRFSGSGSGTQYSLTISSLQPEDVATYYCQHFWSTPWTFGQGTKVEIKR .
70000
